// values below are reported pIC50
- Test system: MCF7
- PROCEDURE_TEXT: Cytotoxicity against human MCF7 cells assessed as reduction in cell viability by SRB assay
- Assay type: functional, cell-based
Scale note: pIC50 = -log10(concentration in M).

Recorded pIC50, per entry:
SMILES_REPR: CC(=O)OC[C@@]1(C)[C@H]2CC[C@]3(CNc4ccccc4F)O[C@H](C4=CCOC4=O)C[C@H]3[C@]2(C)CC[C@H]1OC(C)=O
pIC50: 4.93

SMILES_REPR: CC(=O)O[C@@H]1CC[C@]2(C)[C@H](CC[C@]3(CNc4ccccc4)O[C@H](C4=CCOC4=O)C[C@H]32)[C@]1(C)CO[Si](C)(C)C(C)(C)C
pIC50: 5.26

Now look at this entry.
Asked: Record request: pIC50 value, item COc1ccc(NC[C@]23CC[C@@H]4[C@](C)(CO[Si](C(C)C)(C(C)C)C(C)C)[C@H](OC(C)=O)CC[C@@]4(C)[C@@H]2C[C@@H](C2=CCOC2=O)O3)cc1OC
Given back: 5.33
